B1: tRNA (parent)
chain: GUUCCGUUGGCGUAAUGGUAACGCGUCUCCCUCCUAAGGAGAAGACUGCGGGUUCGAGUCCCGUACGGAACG

Variants of: B1
TEST NAME: yeast fitness relative to wild type (ratio to wild type); higher = fitter; tRNA-Arg(CCU), competitive growth, 37 C, YPD
Fewer inactive variants are shown than the library holds.
Provide the recorded yeast fitness for the entries that follow.
One number for each entry.

// solved cases for yeast fitness follow
C30A A65C    0.814
C5A A15U C31G G39A G58A G67A    0.558
A42C U47C G63A    0.692
C24U G50A A65U    0.569
C22G G58U    1.05
A45U G68U    0.836

Here is another variant to look at.
Query: Fill blank: measured yeast fitness of the variant A14G A69U A70C is ____.
Response: 0.726
